- assay name: HCT116 colon cancer cell growth inhibition, primary screen, CellTiter-Glo luminescence, NPC library (AID 1117342)
- test conditions: at 20 µM (top of the series)
Calls of active or inactive are those of the source.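 The calls were made as follows: active = compounds that lower survival of HCT116 colon cancer cells in the luminescence readout, no numeric limit stated; inactive = the rest.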
attribute measured: inhibition of viability

| molecule | experimental result |
| --- | --- |
| CC(=O)OCC(=O)[C@@]1(O)[C@H](OC(C)=O)C[C@H]2[C@@H]3CCC4=CC(=O)C=C[C@]4(C)[C@@]3(F)[C@@H](O)C[C@@]21C | -8.2% (inactive) |
| COc1ccc(C(=O)CC(=O)c2ccc(C(C)(C)C)cc2)cc1 | 15.8% (inactive) |
| CCCCCCCC/C=C\CCCCCCCC(=O)NCc1ccc(O)c(OC)c1 | 65.7% (active) |
| COc1cc(C(=O)NCc2ccc(OCCN(C)C)cc2)cc(OC)c1OC | -8.75% (inactive) |
| CNC1(C)C2CCC(C2)C1(C)C (configuration not stated) | 15.7% (inactive) |
| COC(=O)Nc1nc2ccc(S(=O)c3ccccc3)cc2[nH]1 (configuration not stated) | 92.2% (active) |
| COC(=O)[C@H]1[C@H]2C[C@@H]3c4[nH]c5cc(OC)ccc5c4CCN3C[C@H]2C[C@@H](OC(=O)c2cc(OC)c(OC)c(OC)c2)[C@@H]1OC | 40.1% (inactive) |
| Nc1ccc(S(=O)(=O)Nc2cnc3ccccc3n2)cc1 | 0.93% (inactive) |
| COc1ccnc(CS(=O)c2nc3ccc(OC(F)F)cc3[nH]2)c1OC (configuration not stated) | 5.27% (inactive) |
| CC(=O)OCC(=O)[C@@]1(O)[C@H](C)C[C@H]2[C@@H]3CCC4=CC(=O)C=C[C@]4(C)[C@@]3(F)[C@@H](O)C[C@@]21C | 7.2% (inactive) |
| COc1cc2nc(N3CCN(C(=O)C4COc5ccccc5O4)CC3)nc(N)c2cc1OC (configuration not stated) | 101% (active) |
| Nc1ccc(S(N)(=O)=O)cc1 | -0.4% (inactive) |
| CN1CCN(C2=Nc3ccccc3Oc3ccc(Cl)cc32)CC1 | 30.1% (inactive) |
| C/C=C1\[C@H]2C=C(C)C[C@]1(N)c1ccc(=O)[nH]c1C2 | 3.1% (inactive) |
| O=C(O)CCC(=O)Nc1ccc(S(=O)(=O)Nc2nccs2)cc1 | 2% (inactive) |
| Cc1cccc(C)c1NC(=O)C(C)N (configuration not stated) | -4.1% (inactive) |
| CCCCCCCCNC(C)C(O)c1ccc(SC(C)C)cc1 (configuration not stated) | 102% (active) |
| CC(C)c1ccc2oc3nc(N)c(C(=O)O)cc3c(=O)c2c1 | -17% (inactive) |
| CCOC(=O)OC(C)OC1=C(C(=O)Nc2ccccn2)N(C)S(=O)(=O)c2ccccc21 (configuration not stated) | 8.6% (inactive) |
| CC(=O)OCC(=O)NCCCOc1cccc(CN2CCCCC2)c1 | -15.6% (inactive) |
| CCCCN(CCCC)CCCOC(=O)c1ccc(N)cc1 | 15% (inactive) |
| Nc1ccc(S(=O)(=O)Nc2ccc(Cl)nn2)cc1 | -6.17% (inactive) |

* * *

- tested on: Single-stranded DNA-binding protein (Escherichia coli (strain K12)) (UniProt P0AGE0)
- assay name: SSB-ssDNA binding inhibitors – biochemical, fluorescence polarization, NIH Clinical Collection, counter-screen for HCV NS3 helicase inhibitor project (AID 743271)
- test conditions: E. coli SSB-DNA binding, stronger effect = higher value, concentration not given here
Calls of active or inactive are those of the source. Cut-off read from the data, not from the text of the source: active = inhibition above about 28%; inactive = the rest.
We begin with a simple list: items and their reported inhibition.
attribute measured: inhibition

| structure smiles string | attribute measured | experimental result |
| --- | --- | --- |
| COc1cc(C(=O)NS(=O)(=O)c2ccccc2C)ccc1Cc1cn(C)c2ccc(NC(=O)OC3CCCC3)cc12 | inhibition | 25.3% (inactive) |
| CNCCCCOc1ccccc1Cc1ccccc1 | inhibition | -0.87% (inactive) |
| Nc1c2c(nc3c1CCC3)CCCC2 | inhibition | 1.44% (inactive) |
| CC(=O)OCC(=O)NCCCOc1cccc(CN2CCCCC2)c1 | inhibition | -0.1% (inactive) |
| CN1CCN(C2=Nc3cc(F)ccc3Cc3ccccc32)CC1 | inhibition | 1.97% (inactive) |
| CC(=O)O[C@H]1C[C@@H]2CC[C@@H]3[C@H](CC[C@@]4(C)[C@H]3C[C@H]([N+]3(C)CCCCC3)[C@@H]4OC(C)=O)[C@@]2(C)C[C@@H]1N1CCCCC1 | inhibition | 5.91% (inactive) |

* * *

Readings of aggregation suppression score for the listed compounds
- assay name: 75Q-TubH aggregate inhibition, S. cerevisiae, yeast (AID 1616)
- test conditions: S. cerevisiae 75Q-TubH polyglutamine aggregation suppression; stronger effect = higher value
attribute measured: aggregation suppression score

| compound | attribute measured | experimental result |
| --- | --- | --- |
| CC(C)NNC(=O)c1ccncc1 | aggregation suppression score | 1.22 |
| CC(=O)OC/C=C(C)/C=C/C=C(C)/C=C/C1=C(C)CCCC1(C)C | aggregation suppression score | 0.917 |
| Oc1cccc(O)c1 | aggregation suppression score | 1.13 |
| CCN(CC)CCNC(=O)c1cc(Br)c(N)cc1OC | aggregation suppression score | 1.35 |
| O=C(O)c1ccccc1OP(=O)(O)O | aggregation suppression score | 0.8 |
| NS(=O)(=O)c1cc2c(cc1Cl)NC(CSCc1ccccc1)=NS2(=O)=O | aggregation suppression score | 1.51 |
| CN(C)CCOC(=O)C(c1ccccc1)C1(O)CCCC1 (configuration not stated) | aggregation suppression score | 1.32 |
| O=C(O)c1cccnc1Nc1cccc(C(F)(F)F)c1 | aggregation suppression score | 0.0604 |
| COc1ccccc1OCC(O)CO (configuration not stated) | aggregation suppression score | 0.924 |
| Cc1ccccc1N1C(=O)c2cc(S(N)(=O)=O)c(Cl)cc2NC1C (configuration not stated) | aggregation suppression score | 1.18 |
| CCCCC1C(=O)N(c2ccccc2)N(c2ccccc2)C1=O | aggregation suppression score | 0.296 |
| CC(C)COCC(CN(Cc1ccccc1)c1ccccc1)N1CCCC1 (configuration not stated) | aggregation suppression score | 1.08 |
| NCCCCCC(=O)O | aggregation suppression score | 1.27 |
| O=C(O)c1cc(=O)c2ccccc2o1 | aggregation suppression score | 1.45 |
| Cc1ccsc1/C=C/C1=NCCCN1C | aggregation suppression score | 1.28 |
| C[N+](C)(C)CCCCCC[N+](C)(C)C | aggregation suppression score | 1.28 |
| CC(=O)OCC(COC(C)=O)OC(C)=O | aggregation suppression score | 1.25 |
| CCN(CC)C(C)CN1c2ccccc2Sc2ccccc21 (configuration not stated) | aggregation suppression score | 1.19 |
| COc1ccc2[nH]cc(CCNC(C)=O)c2c1 | aggregation suppression score | 1.76 |
| O=C1CC2(CCCC2)CC(=O)N1CCCCN1CCN(c2ncccn2)CC1 | aggregation suppression score | 1.24 |
| O=C(Cn1ccnc1[N+](=O)[O-])NCCO | aggregation suppression score | 0.925 |
| CN(C)/N=N/c1nc[nH]c1C(N)=O | aggregation suppression score | 1.16 |

* * *

- assay name: drug combination growth inhibition, ovarian cancer – cell-based, oncology-focused library, rucaparib conditional, profiling panel (AID 1508598)
- test conditions: patient-derived ovarian cancer cells, CellTiter-Glo viability, 144 h; at 0.313 µM; OCI-P5x cells; with rucaparib 20 µM; stronger effect = lower value; 100% = cells with rucaparib alone
Response field label: string, one of satisfied (viability strictly below 80%) or not satisfied.

| compound | class |
| --- | --- |
| COc1cc2c(Nc3ccc(Br)cc3F)ncnc2cc1OCC1CCN(C)CC1 | not satisfied |
| CN(Cc1cnc2nc(N)nc(N)c2n1)c1ccc(C(=O)N[C@@H](CCC(=O)O)C(=O)O)cc1 | not satisfied |
| Cc1nc2ccc(CN(C)c3ccc(C(=O)N[C@@H](CCC(=O)O)C(=O)O)s3)cc2c(=O)[nH]1 | not satisfied |
| Cn1nnc2c(C(N)=O)ncn2c1=O | not satisfied |
| O=NN(CCCl)C(=O)NC1CCCCC1 | not satisfied |
| CC[C@@]1(O)C(=O)OCc2c1cc1n(c2=O)Cc2cc3c(CN(C)C)c(O)ccc3nc2-1 | satisfied |
| NC(=O)NO | not satisfied |
| COc1cc2c(N3CCN(C(=O)Nc4ccc(OC(C)C)cc4)CC3)ncnc2cc1OCCCN1CCCCC1 | not satisfied |
| CC(c1cc2ccccc2s1)N(O)C(N)=O (stereo not drawn) | not satisfied |
| CC(C)(C#N)c1cc(Cn2cncn2)cc(C(C)(C)C#N)c1 | not satisfied |
| COC(=O)Nc1nc2ccc(C(=O)c3cccs3)cc2[nH]1 | satisfied |
| Cc1nc(-c2ccc(OCC(C)C)c(C#N)c2)sc1C(=O)O | not satisfied |
